Record form. Attribute: IC50. Fill in for each entry.
# Tested on: LTD4 (leukotriene D4)-induced contraction of guinea pig peripheral lung strips
# protocol: In vitro assay to identify leukotriene antagonist compounds (guinea pig lung strips), vs LTD4
# Type: cell-based
# experimental.conditions: Cavia porcellus, 50% reduction of muscle response, read-out: In Vitro I50
Report the figure along with its unit, number first.

[
  {
    "molecule": "N#CC=Cc1cccc(OCc2ccc3ccccc3n2)c1",
    "IC50": "650 nM"
  }
]

Then this molecule:
Exercise: Look up IC50 for this molecule: C(=Cc1nnn[nH]1)c1cccc(OCc2ccc3ccccc3n2)c1.Cl [Example 1C, hydrochloride]
Key: 60 nM

====

# Test system: LTD4 (leukotriene D4)-induced contraction of guinea pig peripheral lung strips
# protocol: In vitro assay to identify leukotriene antagonist compounds (guinea pig lung strips), vs LTD4
# Type: cell-based
# experimental.conditions: 50% reduction of muscle response, hydrochloride, read-out: In Vitro I50
# Procedure: In Vitro Assay to Identify Leukotriene Antagonist Compounds […] […] Leukotriene (usually 0.4 units/ml) is added after the desired preincubation time and the muscle response is recorded. […] From this curve the concentration responding to the 50% reduction of the muscle concentration is calculated as the ^I 50 value. […]
assay.readout: IC50 (nM)
Answers are plain numbers, in nM.

Exercise: Look up IC50 for this compound: C(=Cc1nnn[nH]1)c1cccc(OCc2ccc3ccccc3n2)c1.Cl [Example 1C, hydrochloride]
Key: 80
